target: Cyclin-dependent kinase 4 (Homo sapiens, UniProt P11802)
Sequence (P11802 whole entry): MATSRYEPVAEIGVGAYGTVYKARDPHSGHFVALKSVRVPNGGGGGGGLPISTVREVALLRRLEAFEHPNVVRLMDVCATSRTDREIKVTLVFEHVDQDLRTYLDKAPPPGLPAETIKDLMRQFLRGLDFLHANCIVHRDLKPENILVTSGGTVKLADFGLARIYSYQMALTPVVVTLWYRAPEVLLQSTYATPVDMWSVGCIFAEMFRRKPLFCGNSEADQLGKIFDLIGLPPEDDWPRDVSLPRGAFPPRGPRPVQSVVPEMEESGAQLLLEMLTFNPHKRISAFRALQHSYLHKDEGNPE
Property Label: pIC50
Please express pIC50 as -log10 of the molar concentration.

Solved entries:
[[record]]
molecule = "Cc1ccc(F)c(Nc2ccnc(Nc3ccc(OCC(O)CN(C)C)cc3)n2)c1 (configuration not stated)"
property_label = "pIC50"
test_result = 6.15

[[record]]
molecule = "CN(C)CC(O)COc1ccc(Nc2nccc(Nc3cccc(Cl)c3)n2)cc1 (configuration not stated)"
property_label = "pIC50"
test_result = 5.70


Provide the reported pIC50 (system: Cyclin-dependent kinase 4 (Homo sapiens, UniProt P11802)) for Cc1ccc(Nc2cc(Nc3ccc(OCC(O)CN(C)C)cc3)ncn2)cc1 (configuration not stated) 4.60

Provide the reported pIC50 (system: Cyclin-dependent kinase 4 (Homo sapiens, UniProt P11802)) for CN(C)CC(O)COc1ccc(Nc2ncc(F)c(Nc3ccccc3)n2)cc1 (configuration not stated) 6.52

Provide the reported pIC50 (system: Cyclin-dependent kinase 4 (Homo sapiens, UniProt P11802)) for Cc1cnc(Nc2ccc(OCC(O)CN(C)C)cc2)nc1Nc1ccccc1 (configuration not stated) 6.10

----------
Parameter IC50, tested on Cyclin-dependent kinase 2 (Homo sapiens, UniProt P24941), listed per item.
// units = µM; emit number, no label

[[record]]
molecule = "CN(C)CC(O)COc1ccc(Nc2ncc(Br)c(Nc3ccccc3)n2)cc1 (stereo not drawn)"
value_units = "µM"
test_result = 0.3


Please turn your attention to the following entry.
Provide the reported IC50 (system: Cyclin-dependent kinase 2 (Homo sapiens, UniProt P24941)) for CN(C)CC(O)COc1ccc(Nc2nccc(N(CCC#N)c3cc(Cl)ccc3Cl)n2)cc1 (stereo not drawn) 3

----------
Parameter IC50, tested on Cyclin-dependent kinase 4 (Homo sapiens, UniProt P11802), listed per item.
// units = nM; emit number, no label

Solved entries:
[[record]]
molecule = "CN(C)CC(O)COc1ccc(Nc2cc(Nc3ccc(Cl)cc3)ncn2)cc1 (configuration not stated)"
test_result = 41000

[[record]]
molecule = "CN(C)CC(O)COc1ccc(Nc2ncc(Br)c(Nc3ccccc3)n2)cc1 (configuration not stated)"
test_result = 100

[[record]]
molecule = "CN(C)CC(O)COc1ccc(Nc2nccc(Nc3ccccc3F)n2)cc1 (configuration not stated)"
test_result = 1000

[[record]]
molecule = "COc1ccccc1Nc1ccnc(Nc2ccc(OCC(O)CN(C)C)cc2)n1 (configuration not stated)"
test_result = 19000

[[record]]
molecule = "CN(C)CC(O)COc1ccc(Nc2nccc(Nc3cc(C(F)(F)F)ccc3F)n2)cc1 (configuration not stated)"
test_result = 600

[[record]]
molecule = "COc1ccc(Nc2cc(Nc3ccc(OCC(O)CN(C)C)cc3)ncn2)cc1 (configuration not stated)"
test_result = 57000


Please turn your attention to the following entry.
Provide the reported IC50 (system: Cyclin-dependent kinase 4 (Homo sapiens, UniProt P11802)) for C#CCN(c1ccnc(Nc2ccc(OCC(O)CN(C)C)cc2)n1)c1cc(Cl)ccc1Cl (configuration not stated) 200
